# Test system: Amaranthus viridis
# MEASUREMENT PROTOCOL: Test Example 4: herbicidal effect test by treatment of leave and stem in dry field farming (seven days after seeding)
# Format: in vivo
# PARTICULARS: 120 g/10a active ingredient; emulsion sprayed seven days after seeding; evaluated 14 days after treatment
MEASUREMENT NAME: herbicidal effect (herbicidal rate), Amaranthus viridis (%)

>  <COMPOUND>
CCC(=O)N(c1ccccc1Cc1c(C)n(CCSC)oc1=O)S(=O)(=O)C(F)(F)F [Compound 1-320]

>  <ASSAY TARGET>
Amaranthus viridis

>  <QUANTITY UNIT>
%

>  <DATA VALUE>
40

$$$$
>  <COMPOUND>
CCCCCC(c1ccccc1)n1oc(=O)c(Cc2ccccc2NS(=O)(=O)C(F)(F)F)c1C (stereo not shown) [Compound 1-215]

>  <ASSAY TARGET>
Amaranthus viridis

>  <QUANTITY UNIT>
%

>  <DATA VALUE>
50

$$$$
>  <COMPOUND>
CCCCC(CC)Cn1oc(=O)c(Cc2ccccc2N(S(=O)(=O)C(F)(F)F)S(=O)(=O)C(F)(F)F)c1C (stereo not shown) [Compound 1-980]

>  <ASSAY TARGET>
Amaranthus viridis

>  <QUANTITY UNIT>
%

>  <DATA VALUE>
40

$$$$
>  <COMPOUND>
C=CCOC(=O)N(c1ccccc1Cc1c(C)n(C(C)c2ccccc2)oc1=O)S(=O)(=O)C(F)(F)F (stereo not shown) [Compound 1-710]

>  <ASSAY TARGET>
Amaranthus viridis

>  <QUANTITY UNIT>
%

>  <DATA VALUE>
40

$$$$
>  <COMPOUND>
COCC(C)n1oc(=O)c(Cc2ccccc2N(C(=O)OCC(C)C)S(=O)(=O)C(F)(F)F)c1C (stereo not shown) [Compound 1-675]

>  <ASSAY TARGET>
Amaranthus viridis

>  <QUANTITY UNIT>
%

>  <DATA VALUE>
40

$$$$
>  <COMPOUND>
CCCC(CC)n1oc(=O)c(Cc2ccccc2NS(=O)(=O)C(F)(F)F)c1C (stereo not shown) [Compound 1-110]

>  <ASSAY TARGET>
Amaranthus viridis

>  <QUANTITY UNIT>
%

>  <DATA VALUE>
60

$$$$
>  <COMPOUND>
CCC(C)n1oc(=O)c(Cc2ccccc2N(C(=O)c2ccccn2)S(=O)(=O)C(F)(F)F)c1C (stereo not shown) [Compound 1-528]

>  <ASSAY TARGET>
Amaranthus viridis

>  <QUANTITY UNIT>
%

>  <DATA VALUE>
40

$$$$

====

# Tested on: Echinochloa crus-galli
# MEASUREMENT PROTOCOL: Test Example 2: herbicidal effect test by treatment during growing period in paddy rice cultivation (seven days after seeding)
# Type: in vivo
# PARTICULARS: 120 g/10a active ingredient, assessed 14 days after treatment, dry weight vs untreated area
MEASUREMENT NAME: Herbicidal rate (%) Echinochloa crus-galli

>  <COMPOUND>
CCCOC(=O)N(c1ccccc1Cc1c(C)n(C(C)CC)oc1=O)S(=O)(=O)C(F)(F)F (stereo not shown) [Compound 1-632]

>  <DATA VALUE>
90

$$$$
>  <COMPOUND>
C=CC(C)n1oc(=O)c(Cc2ccccc2N(S(=O)(=O)C(F)(F)F)S(=O)(=O)C(F)(F)F)c1C (stereo not shown) [Compound 1-986]

>  <DATA VALUE>
90

$$$$
>  <COMPOUND>
Cc1c(Cc2ccccc2N(S(=O)(=O)C(F)(F)F)S(=O)(=O)C(F)(F)F)c(=O)on1CCc1ccc(F)cc1 [Compound 1-1044]

>  <DATA VALUE>
70

$$$$
>  <COMPOUND>
CCC(C)n1oc(=O)c(Cc2ccccc2N(S(=O)(=O)CC)S(=O)(=O)C(F)(F)F)c1C (stereo not shown) [Compound 1-913]

>  <DATA VALUE>
90

$$$$
>  <COMPOUND>
CCC(C)n1oc(=O)c(Cc2ccccc2N(C(=O)OCCOC)S(=O)(=O)C(F)(F)F)c1C (stereo not shown) [Compound 1-731]

>  <DATA VALUE>
90

$$$$
>  <COMPOUND>
CCC(C)Cn1oc(=O)c(Cc2ccccc2N(C(=O)OC)S(=O)(=O)C(F)(F)F)c1C (stereo not shown) [Compound 1-583]

>  <DATA VALUE>
100

$$$$
>  <COMPOUND>
COCC(C)n1oc(=O)c(Cc2ccccc2N(C(=O)Oc2ccccc2)S(=O)(=O)C(F)(F)F)c1C (stereo not shown) [Compound 1-765]

>  <DATA VALUE>
90

$$$$
